# Read-out: Intercellular Adhesion Molecule 1 (ICAM1), ICAM1 (gene 3383)
# PROCEDURE TEXT: BSK_KF3CT_ICAM1: BioMAP Diversity Plus: KF3CT Assay for Intercellular Adhesion Molecule 1 (ICAM1) Biomarker Activity (AID 2283067)
# CONDITION INFO: primary human keratinocytes with fibroblasts; actives raise or lower the signal
Calls of active or inactive are those of the source. How the source made its calls: active means hit-call score of the fitted dose curve at least 0.9, where 1 is the maximum; inactive means score below 0.9.
Outcome (select one): t for active, f for inactive

Recorded results for 6 compounds are shown here.
INSERT INTO measurements (compound, class) VALUES
  ('O=C(O)C(F)(F)C(F)(F)C(F)(F)F', 'f'),
  ('Cc1ccc(S(=O)(=O)OCC(F)(F)C(F)(F)C(F)(F)C(F)(F)C(F)(F)C(F)F)cc1', 'f'),
  ('Nc1ccc([N+](=O)[O-])cc1O', 'f'),
  ('FC(F)(F)C(F)(F)C(F)(F)C(F)(F)CCI', 'f'),
  ('O=C(O)C(F)(F)C(F)(F)C(F)(F)C(F)(F)F', 'f'),
  ('CCCCCCC(C)OC(=O)CCCCC(=O)OC(C)CCCCCC (configuration not stated)', 'f');

What did this assay record as the result for FC(F)(F)C(F)(F)CNCC(F)(F)C(F)(F)F ?
f

What is the recorded call for this compound in the test? CCCCCCCCCCCCCCCC[N+](C)(C)Cc1ccccc1
t

Status in this test for FC(F)(Br)C(F)(F)C(F)(F)C(F)(F)C(F)(F)C(F)(F)Br ?
f

Dear all, I need the recorded test outcome for O[Si](c1ccccc1)(c1ccccc1)c1ccccc1 , thank you.
f

Dear colleague, could you share the recorded outcome for C=CC(F)(F)C(F)(F)C(F)(F)C(F)(F)C(F)(F)C(F)(F)C(F)(F)C(F)(F)C=C when you have a moment?
f

Assay outcome for CCO[Si](CCC(F)(F)C(F)(F)C(F)(F)C(F)(F)C(F)(F)C(F)(F)F)(OCC)OCC : what was it?
f

---

# PROCEDURE TEXT: ATG_ISRE_CIS: Attagene CIS-FACTORIAL HepG2 Assay for human Interferon Regulatory Factor 1 (IRF1) binding to an Interferon-Stimulated Response Element (ISRE) (AID 2282948)
# CONDITION INFO: HepG2 ISRE cis-reporter (Attagene), mRNA transcription readout; actives raise or lower the signal
Calls of active or inactive are those of the source. How the source made its calls: active means hit-call score of the fitted dose curve at least 0.9, where 1 is the maximum; inactive means score below 0.9.
Result category, one only: 1 (active), -1 (inactive)

Consider the worked cases shown below.
INSERT INTO results (compound, class) VALUES
  ('CCCCC(CC)COP(=O)(O)OCC(CC)CCCC (stereo not drawn)', -1),
  ('CCO[Si](CCC(F)(F)C(F)(F)C(F)(F)C(F)(F)C(F)(F)C(F)(F)F)(OCC)OCC', -1),
  ('CCCCCCS', 1);

Could you please tell me the result logged for CCCCOc1ccc(N)cc1 in this assay?
-1

Give the logged outcome of this assay for the following compound: CCCCNc1ccccc1
-1

# lookup: test call for C=C(C)C(=O)OCCC(F)(F)C(F)(F)C(F)(F)C(F)(F)C(F)(C(F)(F)F)C(F)(F)F
-1

Tell me the recorded outcome of this test for C=CC(=O)OCC(F)(F)C(F)(F)C(F)(F)C(F)(F)C(F)(F)C(F)(F)C(F)(F)F .
-1

Please share the test call associated with FC(F)(F)C(F)(F)C(F)(F)C(F)(F)C(F)(F)C(F)(F)C(F)(F)Br .
-1

Lab log entry: CCCCCCOC(=O)c1ccccc1 — outcome as called in the assay?
-1

---

# Read-out: Matrix Metallopeptidase 1 (MMP1), MMP1 (gene 4312)
# PROCEDURE TEXT: BSK_BE3C_MMP1: BioMAP Diversity Plus: BE3C Assay for Matrix Metallopeptidase 1 (MMP1) Biomarker Activity (AID 2283024)
# CONDITION INFO: primary human bronchial epithelial cells; actives raise or lower the signal
Activity calls are given as the source filed them. How the source made its calls: active means hit-call score of the fitted dose curve at least 0.9, where 1 is the maximum; inactive means score below 0.9.
Answer with one of the outcomes True (active), False (inactive)

Use these answered entries as a reference point.
INSERT INTO assay_data (sample_smiles, class) VALUES
  ('CCc1ccc(C(c2ccc(CC)cc2)C(Cl)Cl)cc1', 'True'),
  ('FC(F)(F)C(F)(F)C(F)(F)CI', 'False'),
  ('FC(F)(F)C(F)(F)C(F)(F)C(F)(F)C(F)(F)C(F)(F)C(F)(F)C(F)(F)CCS', 'False');

I would be grateful if you could indicate the recorded call for Oc1ccc(Nc2ccccc2)cc1 .
False

Record request — test call for OCC(F)(F)C(F)(F)C(F)(F)C(F)(F)C(F)(F)C(F)(F)F
False

Short answer needed: outcome of this test for O=C(O)C(F)(F)C(F)(F)C(F)(F)F ?
False

Answer briefly: the call reported for CCO[Si](CCC(F)(F)C(F)(F)C(F)(F)C(F)(F)C(F)(F)C(F)(F)F)(OCC)OCC in this assay.
False

Answer briefly: the call reported for O=C(O)C(F)(F)C(F)(F)C(F)(F)C(F)(F)C(F)(F)C(F)(F)C(F)(F)C(F)(F)C(F)(F)C(F)F in this assay.
False

Give the logged outcome of this assay for the following compound: OCC(F)(F)C(F)(F)C(F)(F)C(F)(F)C(F)(F)C(F)F
False

Would you mind telling me which call this test gave OCC(F)(F)C(F)(F)C(F)(F)F ?
False

Test call for this compound, please: C=CC/C=C/C/C=C/C/C=C/C
False

---

# Read-out: CD40, CD40 (gene 958)
# PROCEDURE TEXT: BSK_LPS_CD40: BioMAP Diversity Plus: LPS Assay for CD40 Biomarker Activity (AID 2283076)
# CONDITION INFO: primary human HUVEC with PBMC; actives raise or lower the signal
Activity calls are given as the source filed them. Rule for the calls: active = hit-call score of the fitted dose curve at least 0.9, where 1 is the maximum; inactive = score below 0.9.
Permitted responses: 1.0 (active), 0.0 (inactive)

Illustrative cases are given below, each with its answer.
INSERT INTO assay_data (molecule, class) VALUES
  ('O=C(O)C(F)(F)C(F)(F)OC(F)(F)F', 0.0),
  ('O=S(=O)(OCCOC(F)(F)F)C(F)(F)F', 0.0),
  ('CCc1c(Br)c(Br)c(Br)c(Br)c1Br', 0.0);

Kindly provide the recorded test outcome for the following molecule: Oc1ccc(Nc2ccccc2)cc1
1.0

Give the logged outcome of this assay for the following molecule: OCC(F)(F)C(F)(F)C(F)(F)C(F)(F)C(F)(F)C(F)(F)F
0.0

Please share the test call associated with C=C(C)C(=O)OCCC(F)(F)C(F)(F)C(F)(F)C(F)(F)C(F)(C(F)(F)F)C(F)(F)F .
0.0

---

# EXPERIMENTAL TARGET: Aryl hydrocarbon receptor (Homo sapiens) (UniProt P35869)
# Sequence (P35869 whole entry, looked up): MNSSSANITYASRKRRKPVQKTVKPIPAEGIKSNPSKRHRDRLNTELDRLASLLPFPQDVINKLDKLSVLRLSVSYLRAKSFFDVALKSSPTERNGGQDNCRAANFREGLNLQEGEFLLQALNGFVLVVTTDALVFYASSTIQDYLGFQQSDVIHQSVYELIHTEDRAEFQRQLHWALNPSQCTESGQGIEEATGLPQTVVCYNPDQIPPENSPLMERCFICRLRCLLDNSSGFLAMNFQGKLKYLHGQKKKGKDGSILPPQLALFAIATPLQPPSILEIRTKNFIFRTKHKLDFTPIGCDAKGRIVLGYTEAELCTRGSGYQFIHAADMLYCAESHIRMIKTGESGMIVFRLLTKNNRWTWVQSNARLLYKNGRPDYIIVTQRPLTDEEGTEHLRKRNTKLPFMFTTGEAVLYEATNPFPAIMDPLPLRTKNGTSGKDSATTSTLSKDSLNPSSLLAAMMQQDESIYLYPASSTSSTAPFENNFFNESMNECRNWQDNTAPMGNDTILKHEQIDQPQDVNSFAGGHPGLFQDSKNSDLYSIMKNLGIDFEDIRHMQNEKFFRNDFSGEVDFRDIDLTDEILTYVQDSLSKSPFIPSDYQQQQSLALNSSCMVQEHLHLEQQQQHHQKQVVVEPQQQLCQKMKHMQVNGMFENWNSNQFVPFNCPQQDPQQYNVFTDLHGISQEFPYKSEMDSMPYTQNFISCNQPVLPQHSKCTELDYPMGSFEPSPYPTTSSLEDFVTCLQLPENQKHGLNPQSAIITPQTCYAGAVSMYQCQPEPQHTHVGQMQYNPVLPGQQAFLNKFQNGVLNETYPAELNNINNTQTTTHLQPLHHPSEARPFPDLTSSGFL
# PROCEDURE TEXT: ATG_Ahr_CIS: Attagene CIS-FACTORIAL HepG2 Assay for human Aryl Hydrocarbon Receptor (Ahr) (AID 2282930)
# CONDITION INFO: HepG2 AhR cis-factorial reporter transcription; actives raise or lower the signal
The source made the active and inactive calls. Rule for the calls: active = hit-call score of the fitted dose curve at least 0.9, where 1 is the maximum; inactive = score below 0.9.
Answer with one of the outcomes TRUE (active), FALSE (inactive)

INSERT INTO assay_data (molecule, class) VALUES
  ('Nc1cc(Cl)c(N)c(Cl)c1', 'TRUE'),
  ('O=C(O)C(F)(F)C(F)(F)C(F)(F)C(F)(F)C(F)(F)C(F)(F)C(F)(F)C(F)(F)Cl', 'FALSE'),
  ('CCO[Si](CCC(F)(F)C(F)(F)C(F)(F)C(F)(F)C(F)(F)C(F)(F)F)(OCC)OCC', 'FALSE');

Could you kindly confirm the outcome this assay logged for O=C(O)C(F)(OC(F)(F)C(F)(OC(F)(F)C(F)(F)C(F)(F)F)C(F)(F)F)C(F)(F)F (configuration not stated) ?
FALSE

---

# Read-out: Macrophage colony-stimulating factor (MCSF), CSF1 (gene 1435)
# PROCEDURE TEXT: BSK_hDFCGF_MCSF: BioMAP Diversity Plus: hDFCGF Assay for Macrophage colony-stimulating factor (MCSF) Biomarker Activity (AID 2283060)
# CONDITION INFO: primary human foreskin fibroblasts; actives raise or lower the signal
Activity calls are given as the source filed them. How the source made its calls: active means hit-call score of the fitted dose curve at least 0.9, where 1 is the maximum; inactive means score below 0.9.
Parameter call: string, one of active, inactive

Illustrative cases are given below, each with its answer.
INSERT INTO results (compound, class) VALUES
  ('CC(=O)Nc1ccc(N=Nc2cc(C)ccc2O)cc1', 'active'),
  ('CO[Si](OC)(c1ccccc1)c1ccccc1', 'active'),
  ('FC(F)(F)C(F)(F)C(F)(F)C(F)(F)C(F)(F)C(F)(F)C(F)(F)C(F)(F)F', 'inactive'),
  ('FC(F)(F)C(F)(F)C(F)(F)N(C(F)(F)C(F)(F)C(F)(F)F)C(F)(F)C(F)(F)C(F)(F)F', 'inactive'),
  ('FC(F)(F)C(F)(F)C(F)(F)C(F)(F)C(F)(F)C(F)(F)C(F)(F)I', 'inactive');

Short answer needed: outcome of this test for OCCCC(F)(F)C(F)(F)C(F)(F)F ?
inactive

Hi team, can someone confirm the assay call for OCC(F)(F)C(F)(F)C(F)(F)F ?
inactive

Lab log entry: CCCCNc1ccccc1 — outcome as called in the assay?
inactive

Which result was noted for this compound in the test: O=C(O)C(F)(OC(F)(F)C(F)(OC(F)(F)C(F)(F)C(F)(F)F)C(F)(F)F)C(F)(F)F (stereo not drawn)
inactive

I'd appreciate the recorded outcome for C=CC(F)(F)C(F)(F)C(F)(F)C(F)(F)C(F)(F)C(F)(F)C(F)(F)C(F)(F)C=C from this test.
inactive
